Reference source: patent US10765761B2

We begin with a simple list: items and their reported Zeta potential.
# Tested on: plasmid vector (pDNA)
# run.description: Average particle diameter and Zeta potential of peptide-nucleic-acid complexes (zetasizer), Example 1
# Format: physicochemical
# condition.details: pDNA/peptide 1/0.7 (peptide conc. 2.1 mg/mL)
Field: numeric (mV). Do not append units.

Record excerpt, results attached:
{"residue.string": "RQRQRYYRQRQRGGRRRRRR (Nucleic acid condensing peptide) [mHP-1]", "Zeta potential [mV]": "−28.2"}
{"residue.string": "RQRQRGGRRRRRR (Nucleic acid condensing peptide) [mHP-3]", "Zeta potential [mV]": "−28.1"}
{"residue.string": "PRRRRSSSRPIRRRRPRRASRRRRRRGGRRRR (salmon) [Protamine sequence, reference compound]", "Zeta potential [mV]": "−27.8"}
{"residue.string": "RRRRRRYYRQRQRGGRRRRRR (Comperative example of nucleic acid condensing peptide) [mHP-2]", "Zeta potential [mV]": 27.3}

Now for the sequence whose Zeta potential we want.
Ask: What value of Zeta potential has been recorded for this entry: RRRRRRGGRRRRRR (Comperative example of nucleic acid condensing peptide) [mHP-4]
Reply: −30.7

###

# System: plasmid vector (pDNA)
# run.description: Average particle diameter and Zeta potential of peptide-nucleic-acid complexes (zetasizer), Example 1
# Format: physicochemical
# condition.details: peptide solely, no nucleic acid (Reference)
We begin with a simple list: items and their reported Zeta potential.
Field: numeric (mV). Do not append units.

Record excerpt, results attached:
{"residue.string": "RQRQRYYRQRQRGGRRRRRR (Nucleic acid condensing peptide) [mHP-1]", "observed.property": "Zeta potential", "recorded.result": 37.2}
{"residue.string": "RRRRRRYYRQRQRGGRRRRRR (Comperative example of nucleic acid condensing peptide) [mHP-2]", "observed.property": "Zeta potential", "recorded.result": 50.5}
{"residue.string": "RRRRRRGGRRRRRR (Comperative example of nucleic acid condensing peptide) [mHP-4]", "observed.property": "Zeta potential", "recorded.result": 39.7}

Ask: What value of Zeta potential has been recorded for this entry: RQRQRGGRRRRRR (Nucleic acid condensing peptide) [mHP-3]
Reply: 17.0

Ask: What value of Zeta potential has been recorded for this entry: PRRRRSSSRPIRRRRPRRASRRRRRRGGRRRR (salmon) [Protamine sequence, reference compound]
Reply: 28.1

###

# Tested on: plasmid vector (pDNA)
# run.description: Average particle diameter and Zeta potential of peptide-nucleic-acid complexes (zetasizer), Example 1
# Assay type: physicochemical
# condition.details: pDNA/peptide 1/0.8 (peptide conc. 2.4 mg/mL)
observed.property: Zeta potential
Value and unit, in that order.

Record excerpt, results attached:
{"residue.string": "RRRRRRGGRRRRRR (Comperative example of nucleic acid condensing peptide) [mHP-4]", "Zeta potential": "28.6 mV"}
{"residue.string": "RRRRRRYYRQRQRGGRRRRRR (Comperative example of nucleic acid condensing peptide) [mHP-2]", "Zeta potential": "21.6 mV"}
{"residue.string": "RQRQRGGRRRRRR (Nucleic acid condensing peptide) [mHP-3]", "Zeta potential": "−25.9 mV"}
{"residue.string": "RQRQRYYRQRQRGGRRRRRR (Nucleic acid condensing peptide) [mHP-1]", "Zeta potential": "−26.7 mV"}

Now for the sequence whose Zeta potential we want.
Ask: What value of Zeta potential has been recorded for this entry: PRRRRSSSRPIRRRRPRRASRRRRRRGGRRRR (salmon) [Protamine sequence, reference compound]
Reply: −24.9 mV

###

# Test system: plasmid vector (pDNA)
# run.description: Average particle diameter and Zeta potential of peptide-nucleic-acid complexes (zetasizer), Example 1
# Type: physicochemical
# condition.details: pDNA/peptide 1/0.9 (peptide conc. 2.7 mg/mL)
observed.property: Zeta potential (mV)
Field: numeric (mV). Do not append units.

{"residue.string": "RQRQRYYRQRQRGGRRRRRR (Nucleic acid condensing peptide) [mHP-1]", "observed.property": "Zeta potential", "recorded.result": "−25.5"}

Ask: What value of Zeta potential has been recorded for this entry: PRRRRSSSRPIRRRRPRRASRRRRRRGGRRRR (salmon) [Protamine sequence, reference compound]
Reply: −29.5

Ask: What value of Zeta potential has been recorded for this entry: RRRRRRYYRQRQRGGRRRRRR (Comperative example of nucleic acid condensing peptide) [mHP-2]
Reply: 34.2

Ask: What value of Zeta potential has been recorded for this entry: RQRQRGGRRRRRR (Nucleic acid condensing peptide) [mHP-3]
Reply: −28.3

Ask: What value of Zeta potential has been recorded for this entry: RRRRRRGGRRRRRR (Comperative example of nucleic acid condensing peptide) [mHP-4]
Reply: 33.0

###

# System: plasmid vector (pDNA)
# run.description: Average particle diameter and Zeta potential of peptide-nucleic-acid complexes (zetasizer), Example 1
# Format: physicochemical
# condition.details: pDNA/peptide 1/0.9 (peptide conc. 2.7 mg/mL)
Record 1 whenever Average particle diameter (zAve) is at 200 nm or higher; record -1 when lower.

Ask: Is it the case that RQRQRYYRQRQRGGRRRRRR (Nucleic acid condensing peptide) [mHP-1] has Average particle diameter (zAve) reaching or exceeding 200 nm?
Reply: -1

Ask: Is it the case that RQRQRGGRRRRRR (Nucleic acid condensing peptide) [mHP-3] has Average particle diameter (zAve) reaching or exceeding 200 nm?
Reply: -1

Ask: Is it the case that PRRRRSSSRPIRRRRPRRASRRRRRRGGRRRR (salmon) [Protamine sequence, reference compound] has Average particle diameter (zAve) reaching or exceeding 200 nm?
Reply: -1

Ask: Is it the case that RRRRRRYYRQRQRGGRRRRRR (Comperative example of nucleic acid condensing peptide) [mHP-2] has Average particle diameter (zAve) reaching or exceeding 200 nm?
Reply: -1

Ask: Is it the case that RRRRRRGGRRRRRR (Comperative example of nucleic acid condensing peptide) [mHP-4] has Average particle diameter (zAve) reaching or exceeding 200 nm?
Reply: 1

###

# Test system: plasmid vector (pDNA)
# run.description: Average particle diameter and Zeta potential of peptide-nucleic-acid complexes (zetasizer), Example 1
# Format: physicochemical
# condition.details: peptide solely, no nucleic acid (Reference)
Record 1 whenever Average particle diameter (zAve) is at 400 nm or higher; record 0 when lower.

{"residue.string": "RRRRRRYYRQRQRGGRRRRRR (Comperative example of nucleic acid condensing peptide) [mHP-2]", "label": 0}
{"residue.string": "PRRRRSSSRPIRRRRPRRASRRRRRRGGRRRR (salmon) [Protamine sequence, reference compound]", "label": 1}
{"residue.string": "RRRRRRGGRRRRRR (Comperative example of nucleic acid condensing peptide) [mHP-4]", "label": 1}

Ask: Is it the case that RQRQRYYRQRQRGGRRRRRR (Nucleic acid condensing peptide) [mHP-1] has Average particle diameter (zAve) reaching or exceeding 400 nm?
Reply: 1

Ask: Is it the case that RQRQRGGRRRRRR (Nucleic acid condensing peptide) [mHP-3] has Average particle diameter (zAve) reaching or exceeding 400 nm?
Reply: 0

###

We begin with a simple list: items and their reported Average particle diameter (zAve).
# Tested on: plasmid vector (pDNA)
# run.description: Average particle diameter and Zeta potential of peptide-nucleic-acid complexes (zetasizer), Example 1
# Assay type: physicochemical
# condition.details: pDNA/peptide 1/0.8 (peptide conc. 2.4 mg/mL)
Field: numeric (nm). Do not append units.

Record excerpt, results attached:
{"residue.string": "PRRRRSSSRPIRRRRPRRASRRRRRRGGRRRR (salmon) [Protamine sequence, reference compound]", "measurement.units": "nm", "Average particle diameter (zAve)": 135.9}
{"residue.string": "RQRQRYYRQRQRGGRRRRRR (Nucleic acid condensing peptide) [mHP-1]", "measurement.units": "nm", "Average particle diameter (zAve)": 133.4}
{"residue.string": "RRRRRRGGRRRRRR (Comperative example of nucleic acid condensing peptide) [mHP-4]", "measurement.units": "nm", "Average particle diameter (zAve)": 323.4}
{"residue.string": "RQRQRGGRRRRRR (Nucleic acid condensing peptide) [mHP-3]", "measurement.units": "nm", "Average particle diameter (zAve)": 134.9}

Now for the sequence whose Average particle diameter (zAve) we want.
Ask: What value of Average particle diameter (zAve) has been recorded for this entry: RRRRRRYYRQRQRGGRRRRRR (Comperative example of nucleic acid condensing peptide) [mHP-2]
Reply: 159.0

###

# System: plasmid vector (pDNA)
# run.description: Average particle diameter and Zeta potential of peptide-nucleic-acid complexes (zetasizer), Example 1
# Type: physicochemical
# condition.details: pDNA/peptide 1/0.7 (peptide conc. 2.1 mg/mL)
observed.property: Average particle diameter (zAve) (nm)
Field: numeric (nm). Do not append units.

{"residue.string": "RRRRRRYYRQRQRGGRRRRRR (Comperative example of nucleic acid condensing peptide) [mHP-2]", "assayed.system": "plasmid vector (pDNA)", "Average particle diameter (zAve), nm": 184.0}
{"residue.string": "PRRRRSSSRPIRRRRPRRASRRRRRRGGRRRR (salmon) [Protamine sequence, reference compound]", "assayed.system": "plasmid vector (pDNA)", "Average particle diameter (zAve), nm": 136.5}
{"residue.string": "RQRQRYYRQRQRGGRRRRRR (Nucleic acid condensing peptide) [mHP-1]", "assayed.system": "plasmid vector (pDNA)", "Average particle diameter (zAve), nm": 124.0}
{"residue.string": "RRRRRRGGRRRRRR (Comperative example of nucleic acid condensing peptide) [mHP-4]", "assayed.system": "plasmid vector (pDNA)", "Average particle diameter (zAve), nm": 141.2}

Now for the sequence whose Average particle diameter (zAve) we want.
Ask: What value of Average particle diameter (zAve) has been recorded for this entry: RQRQRGGRRRRRR (Nucleic acid condensing peptide) [mHP-3]
Reply: 135.8
